Parameter MIC: see the listing below.
# Tested on: Salmonella typhi
# ASSAY_PROTOCOL: Antibacterial activity against Salmonella typhi MTCC 98 assessed as growth inhibition after overnight incubation by NCCLS broth microdilution method
# Assay type: functional, Salmonella enterica subsp. enterica serovar Typhi
# CONDITION_LABEL: Salmonella enterica
Report only the number, with the unit mg/L understood.

Examples with answers:
Cc1ccc2nc(Oc3ccc(C#N)cc3)c(C3C(C#N)=C(N)N(c4cccc(C(F)(F)F)c4)C4=C3C(=O)CCC4)cc2c1 (centres undefined) : 250
CC1(C)CC(=O)C2=C(C1)N(c1cc(F)ccc1F)C(N)=C(C#N)C2c1cc2ccccc2nc1Oc1ccc(C#N)cc1 (centres undefined) : 250
COc1ccc2nc(Oc3ccc(C#N)cc3)c(C3C(C#N)=C(N)N(c4cc(F)ccc4F)C4=C3C(=O)CC(C)(C)C4)cc2c1 (centres undefined) : 250

Kindly consider the entry below.
(Q) Entry CC1(C)CC(=O)C2=C(C1)N(c1cc(F)ccc1F)C(N)=C(C#N)C2c1cc2cc(Cl)ccc2nc1Oc1ccc(C#N)cc1 (centres undefined) has what MIC?
(A) 125

---

# Test system: Salmonella typhi
# ASSAY_PROTOCOL: Antibacterial activity against Salmonella typhi MTCC 98 assessed as growth inhibition after overnight incubation by NCCLS broth microdilution method
# Type: functional, Salmonella enterica subsp. enterica serovar Typhi
# CONDITION_LABEL: Salmonella enterica
Rule: MIC below 200 µg/mL gives condition met. Equal to or above 200 µg/mL gives condition not met.

Cc1ccc2nc(Oc3ccc(C#N)cc3)c(C3C(C#N)=C(N)N(c4ccc(F)c(F)c4)C4=C3C(=O)CCC4)cc2c1 (stereo not drawn) : condition not met

Please turn your attention to the following entry.
(Q) Bench note: check whether O=C(N[C@H](CO)[C@H](O)c1ccc([N+](=O)[O-])cc1)C(Cl)Cl shows MIC below 200 µg/mL
(A) condition met

---

Parameter MIC: see the listing below.
# Test system: Aspergillus fumigatus
# ASSAY_PROTOCOL: Antifungal activity against Aspergillus fumigatus MTCC 3008 assessed as growth inhibition after overnight incubation by NCCLS broth microdilution method
# Format: functional
Report only the number, with the unit µg/mL understood.

CC1(C)CC(=O)C2=C(C1)N(c1ccc(F)c(F)c1)C(N)=C(C#N)C2c1cc2ccccc2nc1Oc1ccc(C#N)cc1 (centres undefined) : 500
CC1(C)CC(=O)C2=C(C1)N(c1cccc(C(F)(F)F)c1)C(N)=C(C#N)C2c1cc2cc(Cl)ccc2nc1Oc1ccc(C#N)cc1 (centres undefined) : 1000
CC1(C)CC(=O)C2=C(C1)N(c1cc(F)ccc1F)C(N)=C(C#N)C2c1cc2ccccc2nc1Oc1ccc(C#N)cc1 (centres undefined) : 1000
COC1=CC(=O)C[C@@H](C)[C@]12Oc1c(Cl)c(OC)cc(OC)c1C2=O : 100

(Q) Request body: readout MIC, system Aspergillus fumigatus, query N#Cc1ccc(Oc2nc3ccc(Cl)cc3cc2C=O)cc1 . Return the value.
(A) 250

(Q) Request body: readout MIC, system Aspergillus fumigatus, query COc1ccc2nc(Oc3ccc(C#N)cc3)c(C3C(C#N)=C(N)N(c4cc(F)ccc4F)C4=C3C(=O)CCC4)cc2c1 (centres undefined) . Return the value.
(A) 1000

(Q) Request body: readout MIC, system Aspergillus fumigatus, query COc1ccc2nc(Oc3ccc(C#N)cc3)c(C=O)cc2c1 . Return the value.
(A) 1000

(Q) Request body: readout MIC, system Aspergillus fumigatus, query N#Cc1ccc(Oc2nc3ccccc3cc2C=O)cc1 . Return the value.
(A) 500

---

Parameter mortality at 24 h, 50 ug/mL: see the listing below.
# ASSAY_PROTOCOL: Toxicity in brine shrimps cysts assessed as mortality at 50 ug/mL after 24 hrs relative to control
# Assay type: organism-based
# CONDITION_LABEL: artemia, in vivo
Report only the number, with the unit % understood.

Cc1ccc2nc(Oc3ccc(C#N)cc3)c(C3C(C#N)=C(N)N(c4cc(F)ccc4F)C4=C3C(=O)CC(C)(C)C4)cc2c1 (stereo not given) : 80
CC1(C)CC(=O)C2=C(C1)N(c1cccc(C(F)(F)F)c1)C(N)=C(C#N)C2c1cc2cc(Cl)ccc2nc1Oc1ccc(C#N)cc1 (stereo not given) : 80
Cc1ccc2nc(Oc3ccc(C#N)cc3)c(C3C(C#N)=C(N)N(c4cccc(C(F)(F)F)c4)C4=C3C(=O)CC(C)(C)C4)cc2c1 (stereo not given) : 90
N#CC1=C(N)N(c2ccc(F)c(F)c2)C2=C(C(=O)CCC2)C1c1cc2cc(Cl)ccc2nc1Oc1ccc(C#N)cc1 (stereo not given) : 90

Kindly consider the entry below.
(Q) Entry N#CC1=C(N)N(c2cccc(C(F)(F)F)c2)C2=C(C(=O)CCC2)C1c1cc2cc(Cl)ccc2nc1Oc1ccc(C#N)cc1 (stereo not given) has what mortality at 24 h, 50 ug/mL?
(A) 70

---

Parameter MIC: see the listing below.
# System: Aspergillus fumigatus
# ASSAY_PROTOCOL: Antifungal activity against Aspergillus fumigatus MTCC 3008 assessed as growth inhibition after overnight incubation by NCCLS broth microdilution method
# Type: functional
Report only the number, with the unit µg/mL understood.

COc1ccc2nc(Oc3ccc(C#N)cc3)c(C3C(C#N)=C(N)N(c4ccc(F)c(F)c4)C4=C3C(=O)CCC4)cc2c1 (stereo not given) : 1000
N#CC1=C(N)N(c2cccc(C(F)(F)F)c2)C2=C(C(=O)CCC2)C1c1cc2ccccc2nc1Oc1ccc(C#N)cc1 (stereo not given) : 1000
N#CC1=C(N)N(c2cc(F)ccc2F)C2=C(C(=O)CCC2)C1c1cc2ccccc2nc1Oc1ccc(C#N)cc1 (stereo not given) : 250
N#CC1=C(N)N(c2cccc(C(F)(F)F)c2)C2=C(C(=O)CCC2)C1c1cc2cc(Cl)ccc2nc1Oc1ccc(C#N)cc1 (stereo not given) : 1000
Cc1ccc2nc(Oc3ccc(C#N)cc3)c(C3C(C#N)=C(N)N(c4ccc(F)c(F)c4)C4=C3C(=O)CC(C)(C)C4)cc2c1 (stereo not given) : 1000
Cc1ccc2nc(Oc3ccc(C#N)cc3)c(C3C(C#N)=C(N)N(c4cccc(C(F)(F)F)c4)C4=C3C(=O)CC(C)(C)C4)cc2c1 (stereo not given) : 1000
Cc1ccc2nc(Oc3ccc(C#N)cc3)c(C3C(C#N)=C(N)N(c4ccc(F)c(F)c4)C4=C3C(=O)CCC4)cc2c1 (stereo not given) : 500
CC1(C)CC(=O)C2=C(C1)N(c1cccc(C(F)(F)F)c1)C(N)=C(C#N)C2c1cc2ccccc2nc1Oc1ccc(C#N)cc1 (stereo not given) : 1000

(Q) Entry CC1(C)CC(=O)C2=C(C1)N(c1ccc(F)c(F)c1)C(N)=C(C#N)C2c1cc2cc(Cl)ccc2nc1Oc1ccc(C#N)cc1 (stereo not given) has what MIC?
(A) 500

---

# ASSAY_PROTOCOL: Toxicity in brine shrimps cysts assessed as mortality at 30 ug/mL after 24 hrs relative to control
# Assay type: organism-based
# CONDITION_LABEL: artemia, in vivo
OBSERVABLE: mortality at 24 h, 30 ug/mL (%)
Report only the number, with the unit % understood.

N#CC1=C(N)N(c2ccc(F)c(F)c2)C2=C(C(=O)CCC2)C1c1cc2cc(Cl)ccc2nc1Oc1ccc(C#N)cc1 (stereo not given) : 70
N#CC1=C(N)N(c2cccc(C(F)(F)F)c2)C2=C(C(=O)CCC2)C1c1cc2cc(Cl)ccc2nc1Oc1ccc(C#N)cc1 (stereo not given) : 40
CC1(C)CC(=O)C2=C(C1)N(c1cccc(C(F)(F)F)c1)C(N)=C(C#N)C2c1cc2cc(Cl)ccc2nc1Oc1ccc(C#N)cc1 (stereo not given) : 50

(Q) Entry Cc1ccc2nc(Oc3ccc(C#N)cc3)c(C3C(C#N)=C(N)N(c4cc(F)ccc4F)C4=C3C(=O)CC(C)(C)C4)cc2c1 (stereo not given) has what mortality at 24 h, 30 ug/mL?
(A) 50

(Q) Entry Cc1ccc2nc(Oc3ccc(C#N)cc3)c(C3C(C#N)=C(N)N(c4cccc(C(F)(F)F)c4)C4=C3C(=O)CC(C)(C)C4)cc2c1 (stereo not given) has what mortality at 24 h, 30 ug/mL?
(A) 70

---

# Test system: Salmonella typhi
# ASSAY_PROTOCOL: Antibacterial activity against Salmonella typhi MTCC 98 assessed as growth inhibition after overnight incubation by NCCLS broth microdilution method
# Format: functional, Salmonella enterica subsp. enterica serovar Typhi
# CONDITION_LABEL: Salmonella enterica
OBSERVABLE: MIC (µg/mL)
Report only the number, with the unit µg/mL understood.

Examples with answers:
CC1(C)CC(=O)C2=C(C1)N(c1ccc(F)c(F)c1)C(N)=C(C#N)C2c1cc2ccccc2nc1Oc1ccc(C#N)cc1 (centres undefined) : 200
N#CC1=C(N)N(c2ccc(F)c(F)c2)C2=C(C(=O)CCC2)C1c1cc2ccccc2nc1Oc1ccc(C#N)cc1 (centres undefined) : 125
CCn1cc(C(=O)O)c(=O)c2cc(F)c(N3CCNCC3)cc21 : 10

Kindly consider the entry below.
(Q) Entry CC1(C)CC(=O)C2=C(C1)N(c1cccc(C(F)(F)F)c1)C(N)=C(C#N)C2c1cc2ccccc2nc1Oc1ccc(C#N)cc1 (centres undefined) has what MIC?
(A) 200
